Where do the numbers come from? From patent US5667764A.

Test system: membrane ghosts
Assay: Membrane binding stability (MBS) assay in membrane ghosts with 5% albumin
Conditions: 24 hours, Table II
readoutName: MBS (% of max.)

compoundString: CCCCCCCCCCCC[N+]1=C(C=CC=C2N(CCCCCCCCCC)c3ccccc3C2(C)C)C(C)(C)c2ccccc21
readoutName: MBS (% of max.)
measuredResult: 19 ± 3.5 % of max.
//
compoundString: CCCCCCCCCCCCCCN1C(=CC=CC2=[N+](CCCCCCCCCCCCCC)c3ccccc3C2(C)C)C(C)(C)c2ccccc21
readoutName: MBS (% of max.)
measuredResult: 55 ± 1.7 % of max.
//
compoundString: CCCCCCCCCCCCCCCCCCCCCCN1C(=CC=CC2=[N+](CCCCCCCCCCCCCC)c3ccccc3C2(C)C)C(C)(C)c2ccccc21
readoutName: MBS (% of max.)
measuredResult: 85 ± 1.7 % of max.
//
compoundString: CCCCCCCCCCCCCCCCN1C(=CC=CC2=[N+](CCCCCCCCCCCCCCCC)c3ccccc3C2(C)C)C(C)(C)c2ccccc21
readoutName: MBS (% of max.)
measuredResult: 79 ± 3.7 % of max.
